- Tested on: HT29 colon
- method: NCI tumour cell line growth inhibition, 48 h
property.measured: TGI

Look over these answered cases.
INSERT INTO measurements (compound, assayed_target, result) VALUES
  ('NC(=O)CC(Nc1ncc2c(n1)-c1ccccc1OC2)C(=O)O (stereo unspecified)', 'HT29 colon', '> 100 µM'),
  ('CN1CC(c2ccccc2)N(CCCCN2CC(c3ccccc3)N(C)CC2c2ccccc2)CC1c1ccccc1 (stereo unspecified)', 'HT29 colon', '> 100 µM'),
  ('CCN(CC)CCCCC1CCN(CC(=O)N2CC(C)C(=O)Nc3ccccc32)CC1 (stereo unspecified)', 'HT29 colon', '> 100 µM'),
  ('COc1ccc(CNc2nc(NCc3ccc(OC)cc3)nc(N3CCOCC3)n2)cc1', 'HT29 colon', '9.63 µM'),
  ('COP1(=O)CC2C(Cl)(Cl)C2(C)C1 (stereo unspecified)', 'HT29 colon', '> 100 µM');

For every listed record, write down its TGI.
1. COC1=CC23C=CC1[C@@H](c1ccccc1)C2=C(C)C(=O)N3C(=O)NC1CCCCC1 (stereo partly specified)
2. O=C(c1ccco1)N(C(=S)OCc1ccccn1)c1ccccc1
3. CC(C)=CC(C(O)c1ccccc1)S(=O)(=O)c1nccn1C (stereo unspecified)
4. Cc1cc2nc3c(C(OC4OC(CO)C(O)C(O)C4O)C(O)CO)nn(-c4ccccc4)c3nc2cc1C (stereo unspecified)

Given back:
1: 41.1 µM; 2: > 100 µM; 3: > 100 µM; 4: > 100 µM

Parameter requested: TGI. Apply to each item below.
1. O=C1NC(N/N=C\c2ccccc2)=N/C1=C/c1ccc(Cl)cc1
2. O=C(Nc1ccccc1)c1ccc(Cl)c([N+](=O)[O-])c1
3. O=C(O)c1ccccc1/C=N\NC1=NCCCCN1
4. O=c1cc(-c2ccccc2)[nH]c2cc(Cl)cc(Cl)c12

Given back:
["> 100 µM", "70.1 µM", "> 100 µM", "> 100 µM"]

Working through the 2 compounds below one at a time, give TGI for each.
1. CC[N+](C)(CC)CCN1C(=O)c2ccccc2S1(=O)=O
2. Oc1ccc(Br)cc1Sc1cc(Br)ccc1O

Given back:
1: > 100 µM; 2: 34.1 µM
